- TARGET_OF_ASSAY: Oxytocin receptor (Homo sapiens, UniProt P30559)
- Sequence (P30559 whole entry): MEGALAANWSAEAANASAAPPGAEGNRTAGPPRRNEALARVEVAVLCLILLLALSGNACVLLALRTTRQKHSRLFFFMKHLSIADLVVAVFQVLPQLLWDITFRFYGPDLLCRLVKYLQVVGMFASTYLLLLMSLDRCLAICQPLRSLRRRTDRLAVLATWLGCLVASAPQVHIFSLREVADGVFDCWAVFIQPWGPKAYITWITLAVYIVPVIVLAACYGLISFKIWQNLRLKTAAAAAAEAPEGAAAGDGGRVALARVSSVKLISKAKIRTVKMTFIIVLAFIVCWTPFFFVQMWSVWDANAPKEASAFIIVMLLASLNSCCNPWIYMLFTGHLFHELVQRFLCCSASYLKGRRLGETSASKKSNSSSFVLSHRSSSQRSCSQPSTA
- EXPERIMENT_SUMMARY: Agonist activity at human OT receptor expressed in CHO-K1 cells by luciferase reporter gene assay
- Assay type: functional, cell-based
- CONDITIONS_USED: read-out: pEC50 (converted)
Bridge positions count the residues as written; N and C are the ends. Square brackets hold non-standard residues; d marks the D form. Peptide text beside a SMILES is read from it. * marks the point of attachment. Cha = N[C@@H](CC1CCCCC1)C(=O)O; NHCH(CH2OH)2 = OCC(CO)N*; Orn = NCCC[C@H](N)C(=O)O
PROPERTY_LABEL: EC50

List EC50 for every entry below, keeping the order given.
1. CC[C@H](C)[C@@H]1NC(=O)[C@H](CC2CCCCC2)NC(=O)[C@@H](N)CSSC[C@@H](C(=O)N2CCC[C@H]2C(=O)N[C@@H](CCCN)C(=O)NCC(N)=O)NC(=O)[C@H](CC(N)=O)NC(=O)[C@H](CC(N)=O)NC1=O (H-C[Cha]INNCP[Orn]G-NH2; disulfide 1-6)
2. CC[C@H](C)[C@@H]1NC(=O)[C@H](Cc2ccccc2)NC(=O)[C@@H](N)CSSC[C@@H](C(=O)N2CCC[C@H]2C(=O)N[C@@H](CCCN)C(=O)NCC(N)=O)NC(=O)[C@H](CC(N)=O)NC(=O)[C@H](CC(=O)NC(CO)CO)NC1=O (H-CFID(NHCH(CH2OH)2)NCP[Orn]G-NH2; disulfide 1-6)

1. > 10 µM
2. > 10 µM

---

- TARGET_OF_ASSAY: UniProt:P47901
- Sequence (P47901 whole entry): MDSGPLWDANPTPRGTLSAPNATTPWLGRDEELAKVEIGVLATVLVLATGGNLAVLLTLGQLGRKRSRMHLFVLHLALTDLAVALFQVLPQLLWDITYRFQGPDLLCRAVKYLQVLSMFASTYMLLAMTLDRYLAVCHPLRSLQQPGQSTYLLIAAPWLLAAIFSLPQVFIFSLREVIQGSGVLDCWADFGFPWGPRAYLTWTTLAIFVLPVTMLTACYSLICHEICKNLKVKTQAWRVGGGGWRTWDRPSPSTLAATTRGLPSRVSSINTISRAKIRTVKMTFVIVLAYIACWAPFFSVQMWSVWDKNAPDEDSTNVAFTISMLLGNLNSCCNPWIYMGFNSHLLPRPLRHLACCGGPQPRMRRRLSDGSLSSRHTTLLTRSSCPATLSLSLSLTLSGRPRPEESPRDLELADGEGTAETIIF
- EXPERIMENT_SUMMARY: Agonist activity at recombinant human vasopressin V1b receptor expressed in Flp-In-293 cells by luciferase reporter gene assay
- Type: functional, cell-based
- CONDITIONS_USED: read-out: EC50
Numbered stars: 1 amine (or outer) side, 2 acyl side, 3 side chain; on linkers, the order of the positions; unused ones are H or OH. Bridge positions count the residues as written; N and C are the ends. Square brackets hold non-standard residues; d marks the D form. Peptide text beside a SMILES is read from it. Orn(Me) = CN(CCC[C@H](N[*:1])C(=O)[*:2])[*:3]; Bta = N[C@@H](Cc1csc2ccccc12)C(=O)O; Orn(iPr) = CC(C)NCCC[C@H](N)C(=O)O; 2Thi = N[C@@H](Cc1cccs1)C(=O)O; 3Thi = N[C@@H](Cc1ccsc1)C(=O)O; Aad = N[C@@H](CCCC(=O)O)C(=O)O; Cha = N[C@@H](CC1CCCCC1)C(=O)O; Orn = NCCC[C@H](N)C(=O)O; Dab = NCC[C@H](N)C(=O)O
Output Satisfied for records whose EC50 is lower than 60 nM, Not satisfied for records at or above 60 nM.

Illustrative cases are given below, each with its answer.
COMPOUND	ASSIGNED_CLASS
NCCC[C@H](NC(=O)[C@@H]1CCCN1C(=O)[C@@H]1CSSC[C@H](N)C(=O)N[C@@H](Cc2ccc(O)cc2)C(=O)N[C@@H](Cc2ccccc2)C(=O)N[C@@H](CCC(N)=O)C(=O)N[C@@H](CC(N)=O)C(=O)N1)C(=O)NCC(N)=O [ORNIPRESSIN]	Satisfied
CC[C@H](C)[C@@H]1NC(=O)[C@H](Cc2csc3ccccc23)NC(=O)[C@@H](N)CSSC[C@@H](C(=O)N2CCC[C@H]2C(=O)N[C@@H](CCN)C(=O)NCC(N)=O)NC(=O)[C@H](CC(N)=O)NC(=O)[C@H](CCC(N)=O)NC1=O (H-C[Bta]IQNCP[Dab]G-NH2; disulfide 1-6)	Not satisfied

Take the compound CC[C@H](C)[C@@H]1NC(=O)[C@H](Cc2ccccc2)NC(=O)[C@@H](N)CSSC[C@@H](C(=O)N2CCC[C@H]2C(=O)N[C@@H](CCCN)C(=O)NCC(N)=O)NC(=O)[C@H](CC(N)=O)NC(=O)[C@H](CCCC(N)=O)NC1=O (H-CFI[Aad](NH2)NCP[Orn]G-NH2; disulfide 1-6) and say whether its EC50 is less than 60 nM. Satisfied

Take the compound CC[C@H](C)[C@@H]1NC(=O)[C@H](Cc2ccsc2)NC(=O)[C@@H](N)CSSC[C@@H](C(=O)N2CCC[C@H]2C(=O)N[C@@H](CCN)C(=O)NCC(N)=O)NC(=O)[C@H](CC(N)=O)NC(=O)[C@H](CCC(N)=O)NC1=O (H-C[3Thi]IQNCP[Dab]G-NH2; disulfide 1-6) and say whether its EC50 is less than 60 nM. Satisfied

Take the compound CC[C@H](C)[C@@H]1NC(=O)[C@H](Cc2ccccc2)NC(=O)[C@@H](N)CSSC[C@@H](C(=O)N2CCC[C@H]2C(=O)N[C@@H](CCCNC)C(=O)NCC(N)=O)NC(=O)[C@H](CC(N)=O)NC(=O)[C@H](CC(N)=O)NC1=O (H-CFINNCP[Orn(Me)]G-NH2; disulfide 1-6) and say whether its EC50 is less than 60 nM. Not satisfied

Take the compound CC[C@H](C)[C@@H]1NC(=O)[C@H](CC2CCCCC2)NC(=O)[C@@H](N)CSSC[C@@H](C(=O)N2CCC[C@H]2C(=O)N[C@@H](CCCN)C(=O)NCC(N)=O)NC(=O)[C@H](CC(N)=O)NC(=O)[C@H](CC(N)=O)NC1=O (H-C[Cha]INNCP[Orn]G-NH2; disulfide 1-6) and say whether its EC50 is less than 60 nM. Not satisfied

Take the compound CC[C@H](C)[C@@H]1NC(=O)[C@H](Cc2cccs2)NC(=O)[C@@H](N)CSSC[C@@H](C(=O)N2CCC[C@H]2C(=O)N[C@@H](CCCNC(C)C)C(=O)NCC(N)=O)NC(=O)[C@H](CC(N)=O)NC(=O)[C@H](CC(N)=O)NC1=O (H-C[2Thi]INNCP[Orn(iPr)]G-NH2; disulfide 1-6) and say whether its EC50 is less than 60 nM. Not satisfied

---

- Organism: Homo sapiens
- EXPERIMENT_SUMMARY: Selectivity ratio of EC50 for human vasopressin V1b receptor to EC50 for human vasopressin V1a receptor
Numbered stars: 1 amine (or outer) side, 2 acyl side, 3 side chain; on linkers, the order of the positions; unused ones are H or OH. Bridge positions count the residues as written; N and C are the ends. Square brackets hold non-standard residues; d marks the D form. Peptide text beside a SMILES is read from it. * marks the point of attachment. X1 = CCNCCC[C@H](N[*:1])C(=O)[*:2]; Aad = N[C@@H](CCCC(=O)O)C(=O)O; Orn = NCCC[C@H](N)C(=O)O; NHiBu = CC(C)CN*; NHOH = ON*
PROPERTY_LABEL: Ratio EC50
Answers are plain numbers.

Some solved cases for reference:
MOLECULE	ASSAY_VALUE
CC[C@H](C)[C@@H]1NC(=O)[C@H](Cc2ccccc2)NC(=O)[C@@H](N)CSSC[C@@H](C(=O)N2CCC[C@H]2C(=O)N[C@@H](CCCN)C(=O)NCC(N)=O)NC(=O)[C@H](CC(N)=O)NC(=O)[C@H](CCC(=O)NC)NC1=O (H-CFIE(NHMe)NCP[Orn]G-NH2; disulfide 1-6)	9.8
CC[C@H](C)[C@@H]1NC(=O)[C@H](Cc2ccccc2)NC(=O)[C@@H](N)CSSC[C@@H](C(=O)N2CCC[C@H]2C(=O)N[C@@H](CCCN)C(=O)NCC(N)=O)NC(=O)[C@H](CC(N)=O)NC(=O)[C@H](CC(N)=O)NC1=O (H-CFINNCP[Orn]G-NH2; disulfide 1-6)	20
CC[C@H](C)[C@@H]1NC(=O)[C@H](Cc2ccccc2)NC(=O)[C@@H](N)CSSC[C@@H](C(=O)N2CCC[C@H]2C(=O)N[C@@H](CCCN)C(=O)NCC(N)=O)NC(=O)[C@H](CC(N)=O)NC(=O)[C@H](CCC(=O)NCC(C)C)NC1=O (H-CFIE(NHiBu)NCP[Orn]G-NH2; disulfide 1-6)	7.1
NCCC[C@H](NC(=O)[C@@H]1CCCN1C(=O)[C@@H]1CSSC[C@H](N)C(=O)N[C@@H](Cc2ccccc2)C(=O)N[C@@H](Cc2ccccc2)C(=O)N[C@@H](CCC(N)=O)C(=O)N[C@@H](CC(N)=O)C(=O)N1)C(=O)NCC(N)=O (H-CFFQNCP[Orn]G-NH2; disulfide 1-6)	100
CC[C@H](C)[C@@H]1NC(=O)[C@H](Cc2ccccc2)NC(=O)[C@@H](N)CSSC[C@@H](C(=O)N2CCC[C@H]2C(=O)N[C@@H](CCCN)C(=O)NCC(N)=O)NC(=O)[C@H](CC(N)=O)NC(=O)[C@H](CCC(=O)NO)NC1=O (H-CFIE(NHOH)NCP[Orn]G-NH2; disulfide 1-6)	5.8

List Ratio EC50 for every entry below, keeping the order given.
1. CCNCCC[C@H](NC(=O)[C@@H]1CCCN1C(=O)[C@@H]1CSSC[C@H](N)C(=O)N[C@@H](Cc2ccccc2)C(=O)N[C@@H]([C@@H](C)CC)C(=O)N[C@@H](CC(N)=O)C(=O)N[C@@H](CC(N)=O)C(=O)N1)C(=O)NCC(N)=O (H-CFINNCP[X1]G-NH2; disulfide 1-6)
2. CC[C@H](C)[C@@H]1NC(=O)[C@H](Cc2ccccc2)NC(=O)[C@@H](N)CSSC[C@@H](C(=O)N2CCC[C@H]2C(=O)N[C@@H](CCCN)C(=O)NCC(N)=O)NC(=O)[C@H](CC(N)=O)NC(=O)[C@H](CCCC(N)=O)NC1=O (H-CFI[Aad](NH2)NCP[Orn]G-NH2; disulfide 1-6)

[120, 51]
